- Organism: Rattus norvegicus
- PROTOCOL TEXT: Open TG-GATES - Regimen: Daily Repeat
- Assay type: toxicity, organism-based, Sprague-Dawley
- Design: regimen Daily Repeat, gender Male, age 6 weeks
- SETUP CONDITIONS: in vivo, po, 0 mg/kg, 72 h, tissue Plasma, route gavage, dose level Control, time 3 day
Mark Condition not met for ALP values under 1000 IU/L, and Condition met for everything at or above.

Consider the worked cases shown below.
Is ALP for `CC(=O)Oc1cc(C(C)C)c(OCCN(C)C)cc1C` at or above 1000 IU/L?
Condition met

Follow-up entry: `CC(C)(S)[C@@H](N)C(=O)O`
Condition met

Follow-up entry: `C[C@](N)(Cc1ccc(O)c(O)c1)C(=O)O`
Condition met

Follow-up entry: `Oc1ncnc2[nH]ncc12`
Condition not met

Attention now turns to another entry.
Is ALP for `CCc1oc2ccccc2c1C(=O)c1cc(I)c(O)c(I)c1` at or above 1000 IU/L?
Condition not met

###

- Species on record: Rattus norvegicus
- PROTOCOL TEXT: Open TG-GATES - Regimen: Daily Repeat
- Format: toxicity, organism-based, Sprague-Dawley
- Parameters: regimen Daily Repeat, gender Male, age 6 weeks
- SETUP CONDITIONS: in vivo, po, 0 mg/kg, 72 h, tissue Plasma, route gavage, dose level Control, time 3 day
METRIC NAME: PL (mg/dL)
Answers are plain numbers, in mg/dL.

Consider the molecule `O=C(O)c1cccnc1` and give its measured PL.
151.6

Follow-up entry: `Oc1ncnc2[nH]ncc12`
174.6

Follow-up entry: CCN1CCCC1CNC(=O)c1cc(S(N)(=O)=O)ccc1OC (configuration not stated) [SULPIRIDE]
153.2

Follow-up entry: `Nc1nc(N)c2nc(-c3ccccc3)c(N)nc2n1`
152.4

Each molecule below has a recorded value; state its PL.
1. O=C(N[C@H](CO)[C@H](O)c1ccc([N+](=O)[O-])cc1)C(Cl)Cl
2. CC(C)(S)[C@@H](N)C(=O)O
3. CC(=N)S [THIOACETAMIDE]

154
171.8
157.4

###

What RBC was measured for each of the following?
- Species on record: Rattus norvegicus
- PROTOCOL TEXT: Open TG-GATES - Regimen: Daily Repeat
- Format: toxicity, organism-based, Sprague-Dawley
- Parameters: regimen Daily Repeat, gender Male, age 6 weeks
- SETUP CONDITIONS: in vivo, po, 0 mg/kg, […], tissue Blood, route gavage, dose level Control, time 14 day
Give bare numbers, in x10_4/ul.

Consider the molecule Oc1ncnc2[nH]ncc12 [ALLOPURINOL] and give its measured RBC.
728

Each molecule below has a recorded value; state its RBC.
1. CCSCC[C@H](N)C(=O)O [ETHIONINE]
2. C#C[C@]1(O)CC[C@H]2[C@@H]3CCc4cc(O)ccc4[C@H]3CC[C@@]21C [ETHINYL ESTRADIOL]
3. CC(=O)Oc1cc(C(C)C)c(OCCN(C)C)cc1C [MOXISYLYTE]
4. O=C(O)c1cccnc1 [NIACIN]
5. CC(C)C(=O)Nc1ccc([N+](=O)[O-])c(C(F)(F)F)c1 [FLUTAMIDE]
6. O=C(N[C@H](CO)[C@H](O)c1ccc([N+](=O)[O-])cc1)C(Cl)Cl [CHLORAMPHENICOL]

1. 714.8
2. 668.4
3. 699.2
4. 688.8
5. 695
6. 715.4

Each molecule below has a recorded value; state its RBC.
1. C[C@]12CCC(=O)C=C1CC[C@@H]1[C@@H]2CC[C@@]2(C)[C@H]1CC[C@]2(C)O [METHYLTESTOSTERONE]
2. CCC(C)(C)C(=O)O[C@H]1C[C@@H](C)C=C2C=C[C@H](C)[C@H](CC[C@@H]3C[C@@H](O)CC(=O)O3)[C@H]21 [SIMVASTATIN]

713
674.8

###

- Organism: Rattus norvegicus
- PROTOCOL TEXT: Open TG-GATES - Regimen: Daily Repeat
- Assay type: toxicity, organism-based, Sprague-Dawley
- Parameters: regimen Daily Repeat, gender Male, age 6 weeks
- SETUP CONDITIONS: in vivo, po, 100 mg/kg, […], tissue Plasma, route gavage, dose level Low, time 28 day
METRIC NAME: RALB (g/dL)
Numbers only, in g/dL.

Each compound below has a recorded value; state its RALB.
1. O=C(N[C@H](CO)[C@H](O)c1ccc([N+](=O)[O-])cc1)C(Cl)Cl
2. CC(C)(S)[C@@H](N)C(=O)O

1: 2.7; 2: 2.9

Each compound below has a recorded value; state its RALB.
1. O=C(O)c1cccnc1
2. CCN1CCCC1CNC(=O)c1cc(S(N)(=O)=O)ccc1OC (centres undefined) [SULPIRIDE]

1. 3.1
2. 2.8

###

- Species on record: Rattus norvegicus
- PROTOCOL TEXT: Open TG-GATES - Regimen: Daily Repeat
- Assay type: toxicity, organism-based, Sprague-Dawley
- Parameters: regimen Daily Repeat, gender Male, age 6 weeks
- SETUP CONDITIONS: in vivo, po, 1000 mg/kg, […], tissue Plasma, route gavage, dose level High, time 14 day
METRIC NAME: DBIL (mg/dL)
One number for each entry, in mg/dL.

# example entries with known answers
Consider the compound `O=C(O)c1cccnc1` and give its measured DBIL.
0

Follow-up entry: `CC(C)(S)[C@@H](N)C(=O)O`
0.008

Follow-up entry: CCN1CCCC1CNC(=O)c1cc(S(N)(=O)=O)ccc1OC (centres undefined) [SULPIRIDE]
0.008

Alright, here's another compound for you.
Consider the compound `O=C(N[C@H](CO)[C@H](O)c1ccc([N+](=O)[O-])cc1)C(Cl)Cl` and give its measured DBIL.
0.016

###

- Species on record: Rattus norvegicus
- PROTOCOL TEXT: Open TG-GATES - Regimen: Single
- Type: toxicity, organism-based, Sprague-Dawley
- Parameters: regimen Single, gender Male, age 6 weeks
- SETUP CONDITIONS: in vivo, po, 0 mg/kg, 24 h, tissue Plasma, route gavage, dose level Control
METRIC NAME: GLC (mg/dL)
Numbers only, in mg/dL.

Consider the compound `C[C@](N)(Cc1ccc(O)c(O)c1)C(=O)O` and give its measured GLC.
183.6

Follow-up entry: `C[C@]12CCC(=O)C=C1CC[C@@H]1[C@@H]2CC[C@@]2(C)[C@H]1CC[C@]2(C)O`
194.2

Follow-up entry: `O=C(O)c1cccnc1`
197.2

Alright, here's another compound for you.
Consider the compound `C#C[C@]1(O)CC[C@H]2[C@@H]3CCc4cc(O)ccc4[C@H]3CC[C@@]21C` and give its measured GLC.
194.2

###

What Fbg was measured for each of the following?
- Species on record: Rattus norvegicus
- PROTOCOL TEXT: Open TG-GATES - Regimen: Daily Repeat
- Type: toxicity, organism-based, Sprague-Dawley
- Parameters: regimen Daily Repeat, gender Male, age 6 weeks
- SETUP CONDITIONS: in vivo, po, 0 mg/kg, […], tissue Blood, route gavage, dose level Control, time 7 day
One number for each entry, in mg/dL.

# example entries with known answers
Consider the compound `Nc1nc(N)c2nc(-c3ccccc3)c(N)nc2n1` and give its measured Fbg.
302.8

Follow-up entry: `O=C(O)c1cccnc1`
334.8

Follow-up entry: `CC(C)(S)[C@@H](N)C(=O)O`
320.4

Follow-up entry: `CN1C(=O)OC(C)(C)C1=O`
263.8

Follow-up entry: `CCC(C)(C)C(=O)O[C@H]1C[C@@H](C)C=C2C=C[C@H](C)[C@H](CC[C@@H]3C[C@@H](O)CC(=O)O3)[C@H]21`
217.4

Each compound below has a recorded value; state its Fbg.
1. CCc1oc2ccccc2c1C(=O)c1cc(I)c(O)c(I)c1
2. C[C@](N)(Cc1ccc(O)c(O)c1)C(=O)O
3. C[C@]12CCC(=O)C=C1CC[C@@H]1[C@@H]2CC[C@@]2(C)[C@H]1CC[C@]2(C)O
4. Oc1ncnc2[nH]ncc12
5. CC(=N)S [THIOACETAMIDE]

1. 220
2. 283.2
3. 272
4. 242.2
5. 226.2

###

- Species on record: Rattus norvegicus
- PROTOCOL TEXT: Open TG-GATES - Regimen: Daily Repeat
- Type: toxicity, organism-based, Sprague-Dawley
- Parameters: regimen Daily Repeat, gender Male, age 6 weeks
- SETUP CONDITIONS: in vivo, po, 1000 mg/kg, […], route gavage, dose level High, time 28 day
METRIC NAME: TERMINAL_BW (g)
One number for each entry, in g.

# example entries with known answers
Consider the molecule CCN1CCCC1CNC(=O)c1cc(S(N)(=O)=O)ccc1OC (centres undefined) [SULPIRIDE] and give its measured TERMINAL_BW.
370.8

Follow-up entry: `CC(C)(S)[C@@H](N)C(=O)O`
342.2

Follow-up entry: `O=C(N[C@H](CO)[C@H](O)c1ccc([N+](=O)[O-])cc1)C(Cl)Cl`
381.6

Alright, here's another molecule for you.
Consider the molecule `O=C(O)c1cccnc1` and give its measured TERMINAL_BW.
425.7

Entry source: ChEMBL document CHEMBL3885861
